target.or.system: recombinant human NF-kappaB-inducing kinase (NIK/MAP3K14) (Homo sapiens (Human))
procedure.details: Inhibition of auto-phosphorylation of recombinant human NIK/MAP3K14 (AlphaScreen)
Format: biochemical
test.parameters: NIK auto-phosphorylation, 5 μM ATP, 1 nM NIK, 2 h at 25° C.; average of values
assay.metric: IC50 (nM)

[
  {
    "molecule": "[2H]C([2H])([2H])N1CCC(O)(C#Cc2cccc(-c3ncc4ccnc(N)c4n3)c2)C1=O (stereo in doubt) [Example 67]",
    "assay.metric": "IC50",
    "test.result": 11
  }
]

I: O=c1[nH]ccc2cnc(-c3cccc(C#CC4(O)CCc5cccnc54)c3)nc12 (stereo in doubt) [Example 47]
II: Nc1nccc2cnc(-c3cccc(C#CC4(O)CCN(CC(F)(F)F)C4=O)c3)nc12 (stereo in doubt) [Example 72]
Compare IC50: is it lower for I or for II ? Mark your answer with the label of the selected entry.
II

I: CN1CC[C@@](O)(C#Cc2cccc(-c3cc(C#N)c4ncnc(N)c4c3)c2)C1=O [Example 126]
II: CC(C)(O)C#Cc1cccc(-c2ncc3ccnc(N)c3n2)c1 [Example 35]
Compare IC50: is it lower for I or for II ? Mark your answer with the label of the selected entry.
I
(I: 0.9 nM, II: 15 nM)

====

target.or.system: recombinant human NF-kappaB-inducing kinase (NIK/MAP3K14) (Homo sapiens (Human), UniProt Q99558)
Sequence (Q99558 whole entry): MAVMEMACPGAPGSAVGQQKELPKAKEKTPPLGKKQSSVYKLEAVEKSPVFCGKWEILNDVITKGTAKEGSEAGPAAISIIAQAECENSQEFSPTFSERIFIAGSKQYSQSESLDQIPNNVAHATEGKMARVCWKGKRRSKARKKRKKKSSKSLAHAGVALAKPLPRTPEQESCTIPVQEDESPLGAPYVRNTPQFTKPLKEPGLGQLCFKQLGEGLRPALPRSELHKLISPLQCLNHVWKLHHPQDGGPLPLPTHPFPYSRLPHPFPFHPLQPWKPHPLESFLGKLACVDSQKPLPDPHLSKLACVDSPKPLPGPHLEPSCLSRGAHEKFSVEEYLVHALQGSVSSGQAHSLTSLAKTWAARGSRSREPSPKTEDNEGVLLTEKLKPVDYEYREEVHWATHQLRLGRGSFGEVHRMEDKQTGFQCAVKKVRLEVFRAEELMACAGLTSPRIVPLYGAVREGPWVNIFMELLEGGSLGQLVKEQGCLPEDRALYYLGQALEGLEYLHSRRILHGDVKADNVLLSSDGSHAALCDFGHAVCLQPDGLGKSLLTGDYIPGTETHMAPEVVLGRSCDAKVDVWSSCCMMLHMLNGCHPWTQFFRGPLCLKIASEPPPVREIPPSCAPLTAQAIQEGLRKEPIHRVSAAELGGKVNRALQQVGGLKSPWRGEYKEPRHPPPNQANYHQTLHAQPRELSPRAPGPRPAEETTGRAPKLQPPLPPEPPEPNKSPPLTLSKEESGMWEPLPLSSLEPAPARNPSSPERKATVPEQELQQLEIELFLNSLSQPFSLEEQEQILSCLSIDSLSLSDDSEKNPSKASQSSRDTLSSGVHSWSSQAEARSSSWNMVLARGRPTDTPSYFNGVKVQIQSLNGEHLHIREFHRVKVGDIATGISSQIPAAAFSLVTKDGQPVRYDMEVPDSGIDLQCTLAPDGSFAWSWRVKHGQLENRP
procedure.details: Inhibition of auto-phosphorylation of recombinant human NIK/MAP3K14 (AlphaScreen)
test.parameters: NIK auto-phosphorylation, 5 μM ATP, 1 nM NIK, 2 h at 25° C.; average of values
pIC50: −log10 of the molar value.
assay.metric: pIC50

[
  {
    "compound": "Cc1nc(N)c2nc(-c3cccc(C#C[C@@]4(O)C[C@@H](C)N(C)C4=O)c3)ccc2n1",
    "test.result": 6.41
  },
  {
    "compound": "CN1CC[C@@](O)(C#Cc2cccc(-c3ccc4ncnc(N)c4c3)c2)C1=O",
    "test.result": 9.15
  },
  {
    "compound": "CN1CC[C@@](O)(C#Cc2cccc(-c3ccc4nc(CF)nc(N)c4n3)c2)C1=O",
    "test.result": 9.10
  },
  {
    "compound": "Cc1ccc(C#C[C@]2(O)CCc3cccnc32)cc1-c1ncc2ccnc(N)c2n1",
    "test.result": 8.89
  },
  {
    "compound": "Cc1ccc(-c2ncc3ccnc(N)c3n2)cc1C#C[C@]1(O)CCN(C)C1=O",
    "test.result": 9.15
  },
  {
    "compound": "Cc1nc(N)c2nc(-c3cccc(C#CC(C)(O)c4c[nH]cn4)c3)ccc2n1 (racemic)",
    "test.result": 9.00
  },
  {
    "compound": "CN1CC[C@@](O)(C#Cc2cccc(-c3cc(-c4ccccc4)c4ncnc(N)c4n3)c2)C1=O",
    "test.result": 9.15
  },
  {
    "compound": "CN1CC[C@@](O)(C#Cc2cccc(-c3cc(NC4CC4)c4ncnc(N)c4n3)c2)C1=O",
    "test.result": 9.10
  }
]

1: CN1CC[C@@](O)(C#Cc2cccc(-c3ccc4ncnc(NC5COC5)c4n3)c2)C1=O
2: Cc1ccc(C#C[C@]2(O)CCN(C)C2=O)cc1-c1nc(C)c2ncnc(N)c2n1
3: CN1CC[C@@](O)(C#Cc2cccc(-c3ccc4ccnc(N5CCC5)c4n3)c2)C1=O
4: CN1CC[C@@](O)(C#Cc2cccc(-c3ccc4ccnc(N)c4c3)c2)C1=O
Sort the compounds on pIC50; start with the lowest figure. Answer by writing out the labels in the requested order.
3, 1, 2, 4

I: Nc1nccc2cnc(-c3cccc(C#CC4(O)CCN(CC(F)(F)F)C4=O)c3)nc12 (stereo in doubt) [Example 73]
II: CN1CC[C@@](O)(C#Cc2cccc(-c3cc(C(F)F)c4ncnc(N)c4n3)c2)C1=O
III: CN1CC[C@@](O)(C#Cc2cccc(-c3ccc4ncnc(N5CC(S(C)(=O)=O)C5)c4n3)c2)C1=O
IV: CN1CC[C@@](O)(C#Cc2cccc(-c3ccc4ncnc(NCC#N)c4n3)c2)C1=O
Order field: pIC50 | Direction: descending (largest first) Answer by writing out the labels in the requested order.
II, IV, III, I
(II: 8.85, IV: 7.68, III: 7.40, I: 5.76)

A: Cc1ccc(C#C[C@]2(O)CCN(C)C2=O)cc1-c1ncc2c(C)cnc(N)c2n1
B: Nc1nccc2c(C(F)(F)F)nc(-c3cccc(C#C[C@]4(O)CCc5cccnc54)c3)nc12
C: Cc1cc(-c2cccc(C#C[C@]3(O)CCN(C)C3=O)c2)nc2c(C)ncnc12
Order field: pIC50 | Direction: descending (largest first) Answer by writing out the labels in the requested order.
A, B, C
